Where these numbers come from: paper PMC7058304

target: T1, Recombinant purified human PD-1 protein, residues Leu25-Thr168, with a C-terminal 6-His tag (Homo sapiens, UniProt Q15116); assay: SPR; Biacore 8K, CMD-P chip (flat); mAb captured on amine-coupled goat anti-human IgG Fc, PD-1-His monomer as analyte (100 nM top, 3-fold dilutions), 1200 s dissociation; 25 C, HBS-EP+ pH 7.4; 1:1 Langmuir fit, apparent constants; settings: both partners purified
T1 construct: programmed cell death protein 1 (PD-1), human, residues Leu25-Thr168; also called programmed cell death protein 1; PD-1-His monomer; source: bought: R&D Systems (catalog# 8986-PD, lot# DDJM0417041)
T1 sequence (Q15116 25-168): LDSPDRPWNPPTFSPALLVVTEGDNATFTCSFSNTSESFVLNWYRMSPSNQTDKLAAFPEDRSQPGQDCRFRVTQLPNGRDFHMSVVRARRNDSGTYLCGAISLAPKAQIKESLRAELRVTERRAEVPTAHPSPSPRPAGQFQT
Measured koff, listed per entry for reference.
All answers are understood in s⁻¹, so give the number only.

mAb16 (antibody, V domains shown, IgG4; also called analog of dostarlimab; dostar; source: HEK293 suspension cells, cotransfected, purified (Protein A)) VH: EVQLLESGGGLVQPGGSLRLSCAASGFTFSSYDMSWVRQAPGKGLEWVSTISGGGSYTYYQDSVKGRFTISRDNSKNTLYLQMNSLRAEDTAVYYCASPYYAMDYWGQGTTVTVSS VL: DIQLTQSPSFLSAYVGDRVTITCKASQDVGTAVAWYQQKPGKAPKLLIYWASTLHTGVPSRFSGSGSGTEFTLTISSLQPEDFATYYCQHYSSYPWTFGQGTKLEIK    0.000269
mAb17 (antibody, V domains shown, IgG4; also called analog of camrelizumab; camre; source: HEK293 suspension cells, cotransfected, purified (Protein A)) VH: EVQLVESGGGLVQPGGSLRLSCAASGFTFSSYMMSWVRQAPGKGLEWVATISGGGANTYYPDSVKGRFTISRDNAKNSLYLQMNSLRAEDTAVYYCARQLYYFDYWGQGTTVTVSS VL: DIQMTQSPSSLSASVGDRVTITCLASQTIGTWLTWYQQKPGKAPKLLIYTATSLADGVPSRFSGSGSGTDFTLTISSLQPEDFATYYCQQVYSIPWTFGGGTKVEIK    0.000497
mAb23 (antibody, V domains shown, IgG4; also called analog of cemiplimab; cemip; source: HEK293 suspension cells, cotransfected, purified (Protein A)) VH: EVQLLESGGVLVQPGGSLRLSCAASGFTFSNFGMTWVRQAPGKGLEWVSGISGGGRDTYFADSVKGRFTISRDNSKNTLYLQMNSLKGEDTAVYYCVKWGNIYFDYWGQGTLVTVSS VL: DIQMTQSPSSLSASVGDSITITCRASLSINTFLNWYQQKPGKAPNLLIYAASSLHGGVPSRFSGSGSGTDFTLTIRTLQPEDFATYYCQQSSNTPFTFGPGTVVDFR    0.000164

Then this binder:
Entry mAb03 (antibody, V domains shown, IgG4; also called analog of tislelizumab; tisle; source: HEK293 suspension cells, cotransfected, purified (Protein A)) VH: QVQLQESGPGLVKPSETLSLTCTVSGFSLTSYGVHWIRQPPGKGLEWIGVIYADGSTNYNPSLKSRVTISKDTSKNQVSLKLSSVTAADTAVYYCARAYGNYWYIDVWGQGTTVTVSS VL: DIVMTQSPDSLAVSLGERATINCKSSESVSNDVAWYQQKPGQPPKLLINYAFHRFTGVPDRFSGSGYGTDFTLTISSLQAEDVAVYYCHQAYSSPYTFGQGTKLEIK : reported koff = ? 5.77e-05
